The reported measurements were obtained from ChEMBL document CHEMBL1123761.

- subject-of-test: Dipeptidase 1 (Sus scrofa)
- procedure-details: Inhibitory activity against beta-lactamase renal dipeptidase at a concentration of 100 uM
Non-standard residues stand in square brackets, D forms with d. Residues, ends and D or L forms follow the SMILES beside them. *: point of attachment. Isovaleryl = CC(C)CC(=O)*; Dhb = C/C=C(\N)C(=O)O
What inhibition was measured for each of the following?
All answers are understood in %, so give the number only.

Query for Dipeptidase 1 (Sus scrofa): what inhibition does the record show for C/C=C(\NC(=O)Cc1ccccc1)C(=O)O ?
21

Hi! What's the reported inhibition for C/C=C(\NC(=O)CN)C(=O)O (H-Gly-[Dhb]-OH) on Dipeptidase 1 (Sus scrofa)?
6

API: value(readout=inhibition, system=Dipeptidase 1 (Sus scrofa)) for record C/C=C(\NC(=O)CC12CC3CC(CC(C3)C1)C2)C(=O)O
33

Find the measured inhibition: item CC(C)=C(NC(=O)C1CC1(C)C)C(=O)O (configuration not stated) , target or system Dipeptidase 1 (Sus scrofa).
57

Notebook entry, Dipeptidase 1 (Sus scrofa) assay: inhibition of C/C=C(\NC(=O)CCCCCCCCCCCCC)C(=O)O = ?
45

What inhibition appears in the records for this compound with Dipeptidase 1 (Sus scrofa)? C=CCCC(=O)N/C(=C\C)C(=O)O
57

Hello, I am looking for reported inhibition with Dipeptidase 1 (Sus scrofa) for C/C=C(\NC(=O)c1ccc(OC)cc1)C(=O)O . Could you help?
0

Fill in the recorded inhibition for this compound, with Dipeptidase 1 (Sus scrofa) as test system: CC(C)=C(NC(=O)c1ccccc1)C(=O)O
4

Form entry - test system: Dipeptidase 1 (Sus scrofa); read-out: inhibition; compound: O=C(CO)N/C(=C\c1ccccc1)C(=O)O
4

Tell me reported inhibition for C/C=C(\NC(=O)C1(C)CCCCC1)C(=O)O , tested with Dipeptidase 1 (Sus scrofa).
11

Item: C/C=C(\NC(=O)C12CC3CC(CC(C3)C1)C2)C(=O)O Test system: Dipeptidase 1 (Sus scrofa) Read-out: inhibition Value: ?
3

Identify the measured inhibition of C/C=C(\NC(=O)/C=C/C=C/C)C(=O)O for Dipeptidase 1 (Sus scrofa).
0

Request body: readout inhibition, system Dipeptidase 1 (Sus scrofa), query C/C=C(\NC(=O)COc1ccccc1)C(=O)O . Return the value.
3

Give inhibition (Dipeptidase 1 (Sus scrofa)) of the following compound: C/C=C(\NC(=O)CCC1CCCCC1)C(=O)O
54

Fill in the recorded inhibition for this compound, with Dipeptidase 1 (Sus scrofa) as test system: C/C=C(\NC(=O)CNC(=O)CC(C)C)C(=O)O (Isovaleryl-Gly-[Dhb]-OH)
5

Notebook: pull reported inhibition for Dipeptidase 1 (Sus scrofa), entry C/C=C(\NC(=O)c1ccc(C)cc1)C(=O)O
2.5

Lab note: need inhibition for C/C=C(\NC(=O)CCC1CCCO1)C(=O)O (configuration not stated) on Dipeptidase 1 (Sus scrofa), anyone have it?
51

Notebook: pull reported inhibition for Dipeptidase 1 (Sus scrofa), entry C/C=C(\NC(=O)CCCCC(C)C)C(=O)O
57

Form: Entry = CO/C=C(\NC(=O)c1ccccc1)C(=O)O | System = Dipeptidase 1 (Sus scrofa) | inhibition = ____
23

Lab request: please report inhibition under test system Dipeptidase 1 (Sus scrofa) for C/C=C(\NC(=O)C(C)(C)C)C(=O)O
0

Hello, I am looking for reported inhibition with Dipeptidase 1 (Sus scrofa) for C/C=C(\NC(=O)CCCC(=O)N(C)C)C(=O)O . Could you help?
46

Param readout= inhibition; system= Dipeptidase 1 (Sus scrofa); entry= C/C=C(\NC(=O)C1C(C)(C)C1(C)C)C(=O)O ; returns value.
10

Form: Entry = C/C=C(\NC(=O)CC1=CCCCC1)C(=O)O | System = Dipeptidase 1 (Sus scrofa) | inhibition = ____
50

Request body: readout inhibition, system Dipeptidase 1 (Sus scrofa), query C/C=C(\NC(=O)CCCCCCCCC)C(=O)O . Return the value.
58

Form entry - test system: Dipeptidase 1 (Sus scrofa); read-out: inhibition; compound: C=C(NC(=O)c1ccccc1)C(=O)O
9

Request body: readout inhibition, system Dipeptidase 1 (Sus scrofa), query C/C=C(\NC(=O)CCCCC)C(=O)O . Return the value.
54

What is its inhibition for Dipeptidase 1 (Sus scrofa)? Entry: C/C=C(\NC(=O)c1c(Cl)cccc1Cl)C(=O)O
0
